Entries and their pKi values follow.
- SYSTEM_UNDER_TEST: Solute carrier organic anion transporter family member 2A1 (Homo sapiens, UniProt Q92959)
- TEST_SUMMARY: TP_TRANSPORTER: inhibition of PGE2 uptake in PGT-expressing HeLa cells
- Assay type: functional, cell-based
pKi: −log10 of the molar value.
PROPERTY_NAME: pKi

In [3]: df
Out[3]:
                                   molecule                         system_under_test  property_name  observed_result
0  CCCCC[C@H](O)/C=C/[C@H]1C(=O)C[C@H](O)[C@@H]1C/C=C\CCCC(=O)O [PROSTAGLANDIN D2]  Solute carrier organic anion transporter family member 2A1 (Homo sapiens, UniProt Q92959)            pKi             7.42
1  CCCCC[C@H](O)/C=C/[C@@H]1[C@@H](C/C=C\CCCC(=O)O)[C@@H](O)C[C@H]1O [DINOPROST]  Solute carrier organic anion transporter family member 2A1 (Homo sapiens, UniProt Q92959)            pKi             7.64

* * *

Entries and their pKi values follow.
- SYSTEM_UNDER_TEST: Solute carrier organic anion transporter family member 2A1 (Mus musculus)
- Sequence (Q9EPT5 whole entry): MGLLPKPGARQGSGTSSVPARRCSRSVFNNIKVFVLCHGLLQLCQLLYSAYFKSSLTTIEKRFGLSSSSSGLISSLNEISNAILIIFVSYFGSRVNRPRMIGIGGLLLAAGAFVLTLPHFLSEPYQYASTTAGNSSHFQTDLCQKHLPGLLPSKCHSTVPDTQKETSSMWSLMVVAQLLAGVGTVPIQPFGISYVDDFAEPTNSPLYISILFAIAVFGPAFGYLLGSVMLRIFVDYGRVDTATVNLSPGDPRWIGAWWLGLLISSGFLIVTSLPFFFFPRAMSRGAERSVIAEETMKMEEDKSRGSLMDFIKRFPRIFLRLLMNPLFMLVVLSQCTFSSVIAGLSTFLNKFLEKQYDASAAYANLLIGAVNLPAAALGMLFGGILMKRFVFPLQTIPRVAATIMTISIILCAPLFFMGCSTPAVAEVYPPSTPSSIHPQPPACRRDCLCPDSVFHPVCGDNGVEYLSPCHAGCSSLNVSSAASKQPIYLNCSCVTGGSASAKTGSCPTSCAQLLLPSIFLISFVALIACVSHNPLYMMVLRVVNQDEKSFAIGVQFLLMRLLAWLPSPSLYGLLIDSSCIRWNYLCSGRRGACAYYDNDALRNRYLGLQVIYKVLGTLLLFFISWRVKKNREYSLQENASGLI
- TEST_SUMMARY: TP_TRANSPORTER: inhibition of PGE2 uptake in PGT-expressing HeLa cells
pKi: −log10 of the molar value.
PROPERTY_NAME: pKi

                                   compound  observed_result
0  CCCCC[C@H](O)/C=C/[C@H]1C(=O)C[C@H](O)[C@@H]1C/C=C\CCCC(=O)O [PROSTAGLANDIN D2]             7.01
1  CCCCC[C@H](O)/C=C/[C@@H]1[C@@H](C/C=C\CCCC(=O)O)[C@@H](O)C[C@H]1O [DINOPROST]             6.98
